The reported measurements were obtained from ChEMBL document CHEMBL5584344.

- test_summary: Tmax in Sprague-Dawley rat at 15 mg/kg, po measured upto 1440 mins by LC-MS analysis
- Assay type: ADME, organism-based
- conditions_used: in vivo
result_type: Tmax (h)
Dear colleague, please return just the value in h, with no unit written.

{"molecule": "Cc1ccccc1CN1C(=O)C2=C(CCN(Cc3ccccc3)C2)N2CCN=C12 [DORDAVIPRONE]", "Tmax (h)": 0.8}

query: Find the recorded Tmax belonging to O=c1c2c(n3ccnc3n1Cc1ccc(C(F)(F)F)cc1)CCN(Cc1cccc(Cl)c1)C2 and report it.
result: 1.29

----------
- test_summary: AUC (0 to infinity) in Sprague-Dawley rat at 15 mg/kg, po measured upto 1440 mins by LC-MS analysis
- Format: ADME, organism-based
- conditions_used: in vivo
Form field: AUC(0-inf) (one value per entry).

{"compound": "O=c1c2c(n3ccnc3n1Cc1ccc(C(F)(F)F)cc1)CCN(Cc1cccc(Cl)c1)C2", "AUC(0-inf)": "17300 ng·h/mL"}

Pending compound:
query: Find the recorded AUC(0-inf) belonging to Cc1ccccc1CN1C(=O)C2=C(CCN(Cc3ccccc3)C2)N2CCN=C12 [DORDAVIPRONE] and report it.
result: 1510 ng·h/mL
